We begin with a simple list: items and their reported median enrichment.
tested on: HEK293T; test: median enrichment of reporter reads in eGFP-reduced (low/intermediate) vs eGFP-high sorted cells (eGFP-extension fusion abundance) (ratio); higher = stronger loss of eGFP-fusion protein abundance (more destabilising extension)
// print number alone

LMLPGIK [CDV3] ... 4.97
LPGAGGWTC [PTH1R] ... 1.02
GQRQRVLPKPLLPLWMLSLTLTHHCASLQTPRAQDWARPRDSHPFPSWEELACLATDSVSSNWLKWALPRVQLCGFYHA [IQGAP3] ... 15.7
WAAPPGRWGAPLNDSVILKRWLGSWEKPSGCPLGNLHIISVLLVMSRWRGHRCAVSCSRNY [C19orf12] ... 22
WWWWWWW [Trp07] ... 3.21

substance LLHMQKDSAIYLKID [APBB2] , median enrichment observed: 11.6

* * *

We begin with a simple list: items and their reported median enrichment.
tested on: HEK293T; assay: median enrichment of reporter reads in eGFP-reduced (low/intermediate) vs eGFP-high sorted cells (eGFP-extension fusion abundance) (ratio); higher = stronger loss of eGFP-fusion protein abundance (more destabilising extension)

YKISPLPACCKVT [CAMKK2] ... 11.5

substance WPYWLTPENGLLLDGHGRINFSKMFWVGVE [ACTL8] , median enrichment observed: 1.37

substance WRGARAPWSL [CEP104] , median enrichment observed: 1.95

* * *

system: HEK293T; experiment: median enrichment of reporter reads in eGFP-reduced (low/intermediate) vs eGFP-high sorted cells (eGFP-extension fusion abundance) (ratio); higher = stronger loss of eGFP-fusion protein abundance (more destabilising extension)
Threshold check on median enrichment: at or above 6 gives Y, strictly below gives N.

LISLSKSIKRESSLQK [SYNGR4] ... Y
QWSWLRVGEGTWA [RTP2] ... N
KDCDFFVKEAVRIIINNSNSLHFSQGVHCS [MAATS1] ... N
ETSGFSSQTF [ELP5] ... N
CAQDGPRPSMANNHVRHSTSGRCSDASAGAGTPNPWLQNRDPHPDRGSSAFEGFQAGLCGTEAQRGPGTWQRWGREEIQLPSL [CCDC86] ... N
KKKKKKKKKK [Lys10] ... N
WSPMPAHL [CDNF] ... Y
YILLADHYCGLKDDHLV [WFDC9] ... Y

[Q] Check this sequence for median enrichment at or above 6: YDPCGRPLPPSHRLPHHSCLVLGRPHCALALGLPSLLQQGTGALARVTD [GTF3C1]
[A] Y

[Q] Check this sequence for median enrichment at or above 6: RAPVGKGGGLRGRGWMPRAPKPPFPFVSKGVRSELRKRASECVSLEGLGALWCYHLETCLMPPCLPMEDRLQELGPCGNLACF [MTA2]
[A] N

[Q] Check this sequence for median enrichment at or above 6: YATRRCPRPSRRRGSLAGAAPPCVRPAGAHVF [HHIPL1]
[A] Y

* * *

test system: HEK293T; assay: median enrichment of reporter reads in eGFP-reduced (low/intermediate) vs eGFP-high sorted cells (eGFP-extension fusion abundance) (ratio); higher = stronger loss of eGFP-fusion protein abundance (more destabilising extension)
We begin with a simple list: items and their reported median enrichment.
// print number alone

SAAVTTFTCSSYTQTLQD [PIFO] ... 1.55
KFSLLHYVHKGDHYHWGRNSCLVQCGKFLYIR [PDZRN3] ... 12.1
QSSQSSARP [SNX32] ... 0.324
QKRMMMTFIIHKQWEVQQCLGADLRRRMIFLSLLTT [MROH9] ... 20.2
WLEWIYDVPLRRSISATILI [HMGCLL1] ... 12.2

substance LSFCLA [UTP3] , median enrichment observed: 8.65

substance GWVRISTTFLDTVK [HBS1L] , median enrichment observed: 11.5

* * *

system: HEK293T; assay: median enrichment of reporter reads in eGFP-reduced (low/intermediate) vs eGFP-high sorted cells (eGFP-extension fusion abundance) (ratio); higher = stronger loss of eGFP-fusion protein abundance (more destabilising extension)
Readout Kind: median enrichment
// print number alone

Reference set, count: 5
WARSTGPDEWIFTTFTRL [CD8B] ... 7.72
SFAFIF [CHST9] ... 8.28
NNNNNN [Asn06] ... 0.37
SRPHTPALTQLLLGT [GRM2] ... 5.49
WFYILTS [CLHC1] ... 5.45

Entry RDKVRVFSSYILSQATLQDVAKAYIFP [IPCEF1] , HEK293T data, median enrichment value: 3.59

Entry YEHLDQVEKGTLSLVCGKQHLQEI [XKR6] , HEK293T data, median enrichment value: 0.3

Entry KRYPLNIFVEVSYLYQRLGLPI [C7orf25] , HEK293T data, median enrichment value: 15.9

Entry LTHAHAPLTLKRIHNSLEKHPHVCCRTHSSQLRPIPVTTASPPTPVTTASPPTPVTTASPPTALSPRPMSACPRAQDFLTGMW [SSH3] , HEK293T data, median enrichment value: 3.55

Entry READTFFQQ [ADAM12] , HEK293T data, median enrichment value: 0.392

Entry LTLQAGTVLLLSLQYIR [GTPBP2] , HEK293T data, median enrichment value: 9.07

* * *

system: HEK293T; test: median enrichment of reporter reads in eGFP-reduced (low/intermediate) vs eGFP-high sorted cells (eGFP-extension fusion abundance) (ratio); higher = stronger loss of eGFP-fusion protein abundance (more destabilising extension)
Readout Kind: median enrichment
// print number alone

SEPSHSLSPLPCLPHLPPTTRA [RAB3A] ... 0.136
QCLPERVVRWCHVGEQVSFRTQRRPPFCK [ACTR3B] ... 5.17
LKPERIVK [OR2A25] ... 0.737
YVEGYKC [FIBIN] ... 1.05
YTSVLNQDLTQKD [GTF2IRD1] ... 0.784
WREGSNGSRELDTVHPNTSPPPGHLEESSARIPRQSSPPAPAVPSCAVLLPHSAPGPCPFIPLKHPLKPLHHFHSQQKVIEHL [HAUS5] ... 4.17

substance LVRRLGAPPRLRPASISLLQWPAS [IRF8] , median enrichment observed: 7.26

substance LCDCSKLWCKIPPVSSHLPDFYLGLARTSSPSYQPSLPPSSHWTPALALPLG [LY6G5C] , median enrichment observed: 3.74

substance CQFKEKKM [PHTF2] , median enrichment observed: 0.408

substance WGPGRGPGAVGT [INSYN1] , median enrichment observed: 5.06

substance YEISLPGWEERKWGCPGETRNLPSPGWGQGLC [HOXB13] , median enrichment observed: 3.71

substance CVWGLAPCSPGPHCSHTLRLGPPSLLWC [TOM1] , median enrichment observed: 9.33

substance LFCCCIYTSKGPDLLLLKLFFKTWNYKEIRSSITFDTNFYRN [TTC13] , median enrichment observed: 5.88

substance QLLVPPSLLVIRFPRLTP [PITRM1] , median enrichment observed: 9.11

substance RAPVWMLLPRLQTTGSFPCPNPRRSFLEGSWALGTCVSCAYHRPRPPWISWIGVGE [TXNRD1] , median enrichment observed: 10.1

substance QTVEWLKLLSRRIYTSDLRRETLTPQWLHLL [HIST1H2BJ] , median enrichment observed: 10.5

substance LGLLPLGPLTLSGWWTTKYNPVYNLKIYFTFVLLYLFIKG [SMAD4] , median enrichment observed: 5.85

substance LEVVFGVQLLPCTFSLLLSSSTPNRENLGVSGSIWALIYSPSFLSML [ZNF774] , median enrichment observed: 9.71

substance MMMMMMMMMM [Met10] , median enrichment observed: 10.8

substance KGPPLLILPTPPPRFSHWPGLGCPYRRSVCSPTVRRGHTLQNTAQNSKKSLHAK [IFI35] , median enrichment observed: 11.2

* * *

system: HEK293T; test: median enrichment of reporter reads in eGFP-reduced (low/intermediate) vs eGFP-high sorted cells (eGFP-extension fusion abundance) (ratio); higher = stronger loss of eGFP-fusion protein abundance (more destabilising extension);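 also: lentiviral eGFP-IRES-mCherry reporter pool sorted by FACS 96 h post-transduction, gated on mCherry-high cells, Illumina read counts normalized per million, median across four biological replicates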
We begin with a simple list: items and their reported median enrichment.

Reference set, count: 5
RASSFS [KLHL10] ... 0.821
QPTGDPDLILNRRRLRDSRRHRSCPQWTPMNPSQPGPLTKTTRTSWELWDSLDSAVKDD [LILRB5] ... 1.48
RHRGKRRKSC [CLDN1] ... 0.381
LFLNALPHIFRKSRELLP [OR5AU1] ... 9.77
QTVKEGVFVWTR [DSC1] ... 2.42

substance QSVISFICCINV [LRP1B] , median enrichment observed: 11.7

substance SCRDSPAPKYK [MT1G] , median enrichment observed: 0.15

substance KKKKKKKK [Lys08] , median enrichment observed: 1.65

substance SWVCAQPFKAAGSTT [TRIM45] , median enrichment observed: 4.99

substance LVRGRGGAGTYLPESWRQNEALSIPGILLLLRADARPRASRDGVGEVLPTPLSSFPSSTKFPPALTE [SELENOM] , median enrichment observed: 4.2
